The measured values listed here are drawn from patent US6706740B2.

compounds and their reported pest or weed control at 100 ppm
Test system: Septoria tritici—SEPTTR
Assay: Leaf Blotch of Wheat, in vivo whole plant, 24 Hour Protectant
Conditions: Zymoseptoria tritici, 24 h, wheat plants sprayed at 100 ppm, inoculated after 24 hours; control of fungal infection vs untreated plants; read-out: SEPTTR in vivo 1 Day Protectant
value type: pest or weed control at 100 ppm

{"compound": "Cc1ncc(C(=O)NC2CC(C)(C)CC(C)(C)C2)c(O)n1", "value type": "pest or weed control at 100 ppm", "recorded value": "25 to 74%"}
{"compound": "O=C(Nc1ccccc1Oc1ccc(C(F)(F)F)cc1)c1nc(Br)ccc1O", "value type": "pest or weed control at 100 ppm", "recorded value": "25 to 74%"}
{"compound": "N#Cc1ccc(Oc2cccc(NC(=O)c3nc(Br)ccc3O)c2)cc1", "value type": "pest or weed control at 100 ppm", "recorded value": "25 to 74%"}
{"compound": "Cc1ncc(C(=O)N[C@H]2COC(=O)[C@H](Cc3ccccc3)[C@@H](OC(=O)C(C)C)[C@H](C)OC2=O)c(O)n1", "value type": "pest or weed control at 100 ppm", "recorded value": "25 to 74%"}
{"compound": "COc1ccnc(C(=O)Nc2cccc(Oc3ccc(C(F)(F)F)cc3)n2)c1O", "value type": "pest or weed control at 100 ppm", "recorded value": "25 to 74%"}
{"compound": "O=C(NCc1ccc(Cl)c(Cl)c1)c1cccnc1O", "value type": "pest or weed control at 100 ppm", "recorded value": "< 25%"}
{"compound": "O=C(NC(Cc1ccccc1)c1ccccc1)c1nc(Br)ccc1O (stereo not drawn)", "value type": "pest or weed control at 100 ppm", "recorded value": "< 25%"}
{"compound": "COc1ccnc(C(=O)Nc2ccc(Oc3cccc(C(F)(F)F)c3)nc2)c1O", "value type": "pest or weed control at 100 ppm", "recorded value": "25 to 74%"}
{"compound": "CC(=O)Oc1cccnc1C(=O)NC1CCC(OC(C)=O)CC1 (stereo not drawn)", "value type": "pest or weed control at 100 ppm", "recorded value": "< 25%"}

----------
{"compound": "CC1(C)CC(NC(=O)c2cnccc2O)CC(C)(C)C1 [Compound 502]", "melting point": "232 to 235 °C (dec.)"}
{"compound": "CCOc1ccnc(C(=O)NC2COC(=O)[C@H](Cc3ccccc3)[C@@H](OC(=O)C(C)C)[C@H](C)OC2=O)c1O (stereo partly shown) [Compound 475]", "melting point": "168 to 172 °C"}
{"compound": "COc1ccnc(C(=O)N[C@H]2CC[C@H](Oc3ccc(C(F)(F)F)cc3)CC2)c1O [Compound 270]", "melting point": "168 to 172 °C (dec.)"}
{"compound": "COCCC(=O)Oc1c(OC)ccnc1C(=O)N[C@H]1COC(=O)[C@H](Cc2ccccc2)[C@@H](OC(=O)C(C)C)[C@H](C)OC1=O [Compound 658]", "melting point": "126 to 128 °C"}

----------
Test system: Leptosphaeria nodorum—LEPTNO
Assay: Glume Blotch of Wheat, in vivo whole plant, 24 Hour Protectant
Conditions: Leptosphaeria; 100 ppm spray, 24 hour protectant, wheat; control of fungal infection vs untreated plants; read-out: LEPTNO in vivo 1 Day Protectant

{"compound": "COc1ccnc(C(=O)NC2C3CC4C(C3Cl)C42)c1O (stereo not shown) [Compound 304]", "pest or weed control at 100 ppm": "25 to 74%"}
{"compound": "Cc1ccnc(C(=O)NC2CC(C)(C)CC(C)(C)C2)c1O [Compound 236]", "pest or weed control at 100 ppm": "< 25%"}
{"compound": "COc1ccnc(C(=O)N[C@@H]2CC3CC2C[C@@H]3COCc2cccc(C(F)(F)F)c2)c1O (stereo partly shown) [Compound 297]", "pest or weed control at 100 ppm": "25 to 74%"}
{"compound": "COc1ccnc(C(=O)NCCCc2cccnc2)c1O [Compound 243]", "pest or weed control at 100 ppm": "25 to 74%"}
{"compound": "COc1ccnc(C(=O)NC2CC(C)(C)CC(C)(C(=O)OCCC(C)(C)C)C2)c1O (stereo not shown) [Compound 261]", "pest or weed control at 100 ppm": "25 to 74%"}
{"compound": "COc1ccnc(C(=O)N[C@@H]2CC3CC2[C@@H](c2ccccc2)[C@@H]3C(=O)OC(C)C)c1O (stereo partly shown) [Compound 300]", "pest or weed control at 100 ppm": "25 to 74%"}
{"compound": "COc1cccc(CNC(=O)c2ncccc2O)c1OC [Compound 227]", "pest or weed control at 100 ppm": "< 25%"}
{"compound": "O=C(NCc1ccc(Cl)c(Cl)c1)c1ncccc1O [Compound 221]", "pest or weed control at 100 ppm": "< 25%"}
{"compound": "COCCCc1ccc2c(c1)OC(C)C(NC(=O)c1nccc(OC)c1O)C2=O (stereo not shown) [Compound 322]", "pest or weed control at 100 ppm": "25 to 74%"}
{"compound": "CC(C)C(=O)OC1CCC(NC(=O)c2ncccc2O)CC1 (stereo not shown) [Compound 210]", "pest or weed control at 100 ppm": "< 25%"}
{"compound": "COc1ccnc(C(=O)NC2C[C@H](C)O[C@](C)(Cc3ccccc3)C2)c1O (stereo partly shown) [Compound 313]", "pest or weed control at 100 ppm": "25 to 74%"}
{"compound": "COc1ccnc(C(=O)NC2CCN(Cc3ccc(C)cc3)CC2)c1O [Compound 306]", "pest or weed control at 100 ppm": "< 25%"}
{"compound": "COc1ccnc(C(=O)NC2CC3OC2C(C)C(OC(=O)C(C)C)C3C)c1O (stereo not shown) [Compound 320]", "pest or weed control at 100 ppm": "25 to 74%"}
{"compound": "O=C(Nc1cccc(Cl)c1)c1ncccc1O [Compound 212]", "pest or weed control at 100 ppm": "< 25%"}
{"compound": "COc1ccnc(C(=O)NC2CC(C)(C)CCCC2C)c1O (stereo not shown) [Compound 277]", "pest or weed control at 100 ppm": "25 to 74%"}
{"compound": "COc1ccnc(C(=O)NC/C=C(\\C)CCC=C(C)C)c1O [Compound 242]", "pest or weed control at 100 ppm": "< 25%"}
{"compound": "COc1ccnc(C(=O)N[C@H]2CO[C@@H](C(C)Cc3ccc(C(C)(C)C)cc3)OC2)c1O (stereo partly shown) [Compound 317]", "pest or weed control at 100 ppm": "< 25%"}
{"compound": "O=C(NC1CCC(O)CC1)c1ncccc1O (stereo not shown) [Compound 208]", "pest or weed control at 100 ppm": "< 25%"}
{"compound": "O=C(NCc1cccc2ccccc12)c1ncccc1O [Compound 228]", "pest or weed control at 100 ppm": "< 25%"}
